# Experimental system: Methionine aminopeptidase 2 (Homo sapiens)
# Method summary: Inhibition of MetAP2 assessed as remaining enzyme activity at 200 nM after 8 hrs relative to untreated control

Compound	Experimental system	Activity, %
CO[C@H]1[C@@H]([C@@]2(C)O[C@@H]2CC=C(C)C)[C@]2(CC[C@H]1OC(=O)NC(=O)CCl)CO2	Methionine aminopeptidase 2 (Homo sapiens)	4
CO[C@H]1[C@@H]([C@@]2(C)O[C@@H]2CC=C(C)C)[C@]2(CC[C@H]1OC(=O)N[C@@H](C(=O)NN1CCOCC1)C(C)C)CO2	Methionine aminopeptidase 2 (Homo sapiens)	5.2
CO[C@H]1C([C@@]2(C)O[C@@H]2CC=C(C)C)[C@]2(CC[C@H]1OC(=O)N[C@@H](C(=O)Nc1cccc(C(=O)O)c1)C(C)C)CO2 (single isomer, unassigned)	Methionine aminopeptidase 2 (Homo sapiens)	4.3
CO[C@H]1[C@@H]([C@@]2(C)O[C@@H]2CC=C(C)C)[C@]2(CC[C@H]1OC(=O)N[C@@H](C(=O)NCCN1CCCC1)C(C)C)CO2	Methionine aminopeptidase 2 (Homo sapiens)	2.6
CO[C@H]1C([C@@]2(C)O[C@@H]2CC=C(C)C)[C@]2(CC[C@H]1OC(=O)NC(C)(C)C(N)=O)CO2 (single isomer, unassigned)	Methionine aminopeptidase 2 (Homo sapiens)	24
CO[C@H]1[C@@H]([C@@]2(C)O[C@@H]2CC=C(C)C)[C@]2(CC[C@H]1OC(=O)N[C@@H](C(N)=O)C(C)C)CO2	Methionine aminopeptidase 2 (Homo sapiens)	2.8

---

Recorded IC50 values for a group of compounds are listed next.
# System: HUVEC
# Method summary: Antiproliferative activity against HUVEC after 72 hrs by MTT assay
# Type: cell-based
# Condition parameters: Homo sapiens

Compound	Readout unit	IC50
CO[C@H]1C([C@@]2(C)O[C@@H]2CC=C(C)C)[C@]2(CC[C@H]1OC(=O)NC1(C(N)=O)CCCC1)CO2 (single isomer, unassigned)	nM	0.7
CO[C@H]1C([C@@]2(C)O[C@@H]2CC=C(C)C)[C@]2(CC[C@H]1OC(=O)NN1CCOCC1)CO2 (single isomer, unassigned)	nM	0.7
CO[C@H]1C([C@@]2(C)O[C@@H]2CC=C(C)C)[C@]2(CC[C@H]1OC(=O)NCc1ccc(C(=O)O)cc1)CO2 (single isomer, unassigned)	nM	0.7
